# assayed target: RSV prefusion F (preF), subtype A (respiratory syncytial virus, subtype A, UniProt P03420 26-513)
# measurement description: BLI, IgG
endpoint label: pKd
Keep it numeric: pKd is minus log10 of the concentration in mol/L.

[
  {
    "binder": "ADI-21002 (antibody, V domains shown) VH: QVQLVESGPGLVKPSGTLSLTCAVSGDSINSGNWWNWVRQAPGKGLEWIGEIYHRGTSNYNPSLKSRVTISVDQSKNQFSLKVTSLTAADTAIYYCARARGYSSGPSYYYYLDVWGKGTLVTVSS VL: EIVMTQSPSSLSASVGDRVTISCRASQSISTYLNWYQQKPGKAPKVIIYGASNLQSGVPSRFSGSGSGTDFTLTISSLQPEDFATYYCQKSFNPCVFGQGTKVDIK",
    "pKd": 8.63
  },
  {
    "binder": "ADI-21007 (antibody, V domains shown) VH: QVQLVQSGADVKKPGASVKVSCKSSGYTFSNHSMHWVRQAPGQGLEWMGRIHPSSGTTTYAQKFQGRVTMTRDTSTSTVYMEVSSLRSEDTAVYYCARSPFFDFDFWGQGTMVTVSS VL: SYVLTQPHSVSESPGKTVTISCTRSSGSIASNYVQWYQQRPGSAPTSVIYEDNQRPSGVPDRFSGSIDSTSNSASLTISGLKTEDEADYYCQSYYSSGWVFGGGTKLTVL",
    "pKd": 8.83
  },
  {
    "binder": "ADI-14423 (antibody, V domains shown, also called Ab 89) VH: EVQLVESGGVVIQPGGSLRLSCAASGFNFDDYSMHWVRQAPGKGLEWVSLISWDGGITYYADSVKGRFTISRDNGKKSLYLQMNSLRTEDTALYYCAKDIDIYSDYAGYFDYWGQGTLVTVSS VL: DIRMTQSPSSLSASVGDRVTITCRASQGIRNDLGWYQQKPGKAPKRLIYAASSLQSGVPSRFSGSGSGTEFTLTISSLQPEDFATYYCLQHNSYPFTFGQGTRLEIK",
    "pKd": 8.02
  }
]

Asked: Hello, please tell me recorded pKd for this one: ADI-21032 (antibody, V domains shown, also called Ab 280) VH: EVQLVESGGGLVKPGGSLRLSCAVSGFKFSSYTMNWVRQAPGKGLEWVSSVSASSSYIFYADSVQGRFIISRDNAQNSLYLQMNSLRADDTAVYYCTRDQYGPGHYYNPAWFDPWGQGTLVTVSS VL: QPVLTQPPSASGAPGQRVTISCTGSSSNIGAGYDVHWYQQLPGTAPKVLIYGNTNRPSGIPDRFSGSKSGTSASLAIIGLQAEDEADYYCQSYDRNGSKVFGTGTKLTVL
Given back: 9.53

Asked: Hello, please tell me recorded pKd for this one: ADI-14426 (antibody, V domains shown, also called Ab 92) VH: EVQLVESGGGVVQPGRSLRLSCAASGFTFSSFPMHWVRQAPGKGLEWVAVASYDGRNNYYAGSVKGRFTISRDNSKNTLYLQINSLRAEDTAVYYCAREVVIAAHFDYWGQGTLVTVSS VL: SSELTQEPAVSVALGQTVRITCQGDSLRSFYANWYQQKPGQAPILVIYGKNDRPSGIPDRFSGSNSGNTASLTITGAQAEDEADYYCNSRDSSGNHRVFGGGTKVTVL
Given back: 7.62

Asked: Hello, please tell me recorded pKd for this one: ADI-21011 (antibody, V domains shown) VH: QVQLQESGPGLVKPSETLSLSCTASGDSISDYYWSWIRQPPGKGLEWIGFVSDTWGTNYSPSLTSRVAISLDTSRSQVSLRLRSVTAADTAVYYCVRTHLYDRGGYYLYYFDYWGQGTLVTVSS VL: DIRMTQSPPSLSASVGDRVTITCRASQRIASYLNWYQQKPDTAPKLLIYAASNLQTGVPSRFSGSGSGTDFTLTISSLQPEDFATYYCQQSYSTPYTFGQGTKLEIK
Given back: 8.85

Asked: Hello, please tell me recorded pKd for this one: ADI-20971 (antibody, V domains shown) VH: EVQLVESGGGLVKPGESLRLSCAASGFTFSDYSMTWIRQAPGKGLLEWIAYINSQSNYMDYADSVKGRFTISRDNAKNSLYLQMNGLRADDTAVYFCARDRRTFVAATLGWFDPWGQGTLVTVSS VL: ETTLTQSPATLSVSPGERATLSCRASQSVSNNVAWYQQKPGQAPRVLIYAASTRATGIPARFSGSESGTEFTLTISSLQSEDFAVYYCQQYNNWPRTFGQGTKLEIK
Given back: 9.48

Asked: Hello, please tell me recorded pKd for this one: ADI-14399 (antibody, V domains shown, also called Ab 65) VH: EVQLLESGPGLVKPSQTLSLTCAVSGGSINSGRYSWSWIRQPPGKGLEWIGYIYYSGTTYYNPSLESRVTISRDTSKNQFSLNLSSVTAADTAVYYCARTNSADSYASGSHYIRPQYFDFWGQGTLVTVSS VL: DIQLTQSPATLSLSPGERATLSCRASQSVSSYLAWYQQKPGQAPRLLIYGASNRATGIPARFSGSGSGTDFTLTISRLEPEDFAVYYCQQRSNWLTFGGGTKVEIK
Given back: 9.72

Asked: Hello, please tell me recorded pKd for this one: ADI-21021 (antibody, V domains shown, also called Ab 270) VH: QVQLQQWGAGLLKPSETLSLTCAVHGGSFSGFYWSWIRQSPGKGLEWIAEINDSGNTNHNPSLKSRVTISIDTSKNQFSLNVSSVTAADTAVYYCAKNGGGHHYVGTLRFRSRAFDIWGQGTMVTVSS VL: EIVMTQSPSTLSASVGDRVTITCRASQSIGNRLAWYQQKPGKAPKLLISLASGLETGVPSRFSGSGSGTEFTLTITSLQPDDFATYYCQQYSSYGTFGQGTKLEIK
Given back: 8.59

Asked: Hello, please tell me recorded pKd for this one: ADI-14592 (antibody, V domains shown) VH: QVQLVQSGAEVKKPGESLKISCKGSGYTFTNYWIGWVRQMPGKGLEWMGIIYPDDSDTRYSPSFQGQVTISVDKSINTAYLQWSSLRASDTAIYYCACSNWPHYFDSWGQGTLVTVSS VL: NFMLTQPHSVSESPGKTVTISCTRSSGNIAGNYVQWYQQRPGSAPTTVIYEDNQRPSGVPDRFSGSIDSSSNSASLTISGLKTEDEAVYYCQSYHPGNWVFGGGTKLTVL
Given back: 8.62

# credit: patent US20260258115A1
